Source listed as paper PMC6821881.

# EXPERIMENTAL TARGET: ZIKV E protein (GZ01) (Zika virus (strain GZ01))
# ASSAY NOTES: ELISA
Entries and their measured EC50 follow.
QUANTITY MEASURED: EC50

[[record]]
binder = "2L-6 (antibody, V domains shown) VH: EVQLVQSGAEVKKPGASVKVSCKASGYTFTSGHTFPSYDINWVRQATGQGLEWMGWMNPNRGNTGYAQKFQGRVTMTRNTSINTAYMELSSLRSEDTAVYYCARVRSGTNYGSYYYYYYGMDVWGQGTTVTVSS VL: SVLQPQPPSASRHPGQRVTISCLHGSSSNIGNNYVSWYQQLPGTDPKLLIYRNNHAASGVPDRFSGSKSGTSASLAISGLRSEDEADYYCAAWDDSLSGHWVFGGGTKLTVL"
recorded_measurement = "0.356 mg/L"

[[record]]
binder = "2L-3 (antibody, V domains shown) VH: EVQLVQSGAEVKKPGASVKVSCKASGYTFTSGHTFPSYDINWVRQATGQGLEWMGWMNPNRGNTGYAQKFQGRVTMTRNTSINTAYMELSSLRSEDTAVYYCARVRSGTNYGSYYYYYYGMDVWGQGTTVTVSS VL: QSVLTHRPSASGTPGQRVTISCSGSSSNIGSNYGYWYQQLPGTAPKLLIYRNNQRPSGVPDRFSGSKSGTSASLAISGLRSEDEADYYCAAWDDSLSGHWVFGGGTKLTVL"
recorded_measurement = "> 0.5 mg/L"

[[record]]
binder = "2L-11 (antibody, V domains shown) VH: EVQLVQSGAEVKKPGASVKVSCKASGYTFTSGHTFPSYDINWVRQATGQGLEWMGWMNPNRGNTGYAQKFQGRVTMTRNTSINTAYMELSSLRSEDTAVYYCARVRSGTNYGSYYYYYYGMDVWGQGTTVTVSS VL: YSVLTDHPSASGTPGQRVTISCSGSSSNIGSNYVYWYQELPGTAPKLLIYNNNQRPSGVPDRFSGSKSGTSASLAISGLRSEDEAYYYCAAWDDSLSGHWVFGGGTKLTVL"
recorded_measurement = "> 0.5 mg/L"

[[record]]
binder = "2L-9 (antibody, V domains shown) VH: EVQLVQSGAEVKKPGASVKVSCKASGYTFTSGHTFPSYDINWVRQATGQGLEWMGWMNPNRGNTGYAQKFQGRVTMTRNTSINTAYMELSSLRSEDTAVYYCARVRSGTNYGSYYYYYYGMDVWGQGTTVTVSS VL: SSVLTQPPSASGTPGQRVTISCSGSSTNIGSNYAYWYQYLPGTAPKLLIYRNNQRPSGVPDRFSGFKSGTSASLAVSGLRSEDEADYYCAAWDDSLSGHWVFGGGTKLTVL"
recorded_measurement = "> 0.5 mg/L"

[[record]]
binder = "2H-2 (antibody, V domains shown) VH: QVQLVQSGAEVKKPGSSVKVSCKASGGTFSSYAISWVRQATGQGLEWMGGIIPIFGTANYAQKFQGRVTITADESTSTAYMELSSLRSEDTAVYYCARVSSGSYYGSYYYYYYGMDVWGQGTTVTVSS VL: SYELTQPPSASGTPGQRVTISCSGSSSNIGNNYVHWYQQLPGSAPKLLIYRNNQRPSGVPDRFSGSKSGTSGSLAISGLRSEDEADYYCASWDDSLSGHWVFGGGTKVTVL"
recorded_measurement = "> 0.5 mg/L"

